Data origin, for the record: ChEMBL document CHEMBL3988442

Species on record: Homo sapiens
assayExplanation: To identify inhibition of the IFN signalling (Jak-Stat) pathway via expression of an eGFP reporter gene under the control of an IFN-stimulated response element (ISRE) containing MxA promoter.
Type: functional
Set-up: scale not given: direction of the effect not stated beside the values
condition: 30 µM
propertyMeasured: Percent Effect (%)
Give just the number in %; leave the unit off.

# molecule, Percent Effect (%)
rows = [
    ("O=C(NCCO)Nc1cccc(Cl)c1SC(F)F", 28.9),
    ("COc1cc(C)c(CN2CCC3(CC2)C(C(=O)O)CC(=O)N3C)cc1C (configuration not stated)", 22.7),
    ("CC(=O)Nc1nc(C2CCN(C(C)=O)CC2)cs1", 4.06),
    ("Cc1cccc(CN2CCc3ncnc(C)c3CC2)n1", 4.7),
    ("O=C(CCc1cccs1)N1CCC(Nc2cccnn2)CC1", 5.28),
    ("Cc1ccc(CN2C[C@@H]3COC[C@H](NS(C)(=O)=O)[C@@H]3C2)o1", 12.6),
    ("CCc1noc(C(C)N(C)CC(=O)Nc2ccc(C)cc2)n1 (configuration not stated)", -0.282),
    ("CCOC(=O)N1CCN(Cc2ccc(OCc3nccn3C)cc2)CC1", 11.1),
]

Request: If you can, please state the reported Percent Effect value of Cc1nn(C)c(Cl)c1C1CCCN1C(=O)c1nccnc1N (configuration not stated) .
Result: 1.8

Request: If you can, please state the reported Percent Effect value of Cc1ccoc1-c1nnc(CNCCn2cccn2)o1 .
Result: 23.9

Request: If you can, please state the reported Percent Effect value of CN1C(=O)C[C@@H]2[C@@H]1CCN2S(=O)(=O)Cc1ccccc1 .
Result: 1.27

Request: If you can, please state the reported Percent Effect value of O=C(Nc1ccnc(OC2CCOC2)c1)C1CCC1 (configuration not stated) .
Result: 5.01

====

subjectOfTest: Tyrosyl-tRNA synthetase, putative (Trypanosoma cruzi (strain CL Brener))
Sequence (whole entry): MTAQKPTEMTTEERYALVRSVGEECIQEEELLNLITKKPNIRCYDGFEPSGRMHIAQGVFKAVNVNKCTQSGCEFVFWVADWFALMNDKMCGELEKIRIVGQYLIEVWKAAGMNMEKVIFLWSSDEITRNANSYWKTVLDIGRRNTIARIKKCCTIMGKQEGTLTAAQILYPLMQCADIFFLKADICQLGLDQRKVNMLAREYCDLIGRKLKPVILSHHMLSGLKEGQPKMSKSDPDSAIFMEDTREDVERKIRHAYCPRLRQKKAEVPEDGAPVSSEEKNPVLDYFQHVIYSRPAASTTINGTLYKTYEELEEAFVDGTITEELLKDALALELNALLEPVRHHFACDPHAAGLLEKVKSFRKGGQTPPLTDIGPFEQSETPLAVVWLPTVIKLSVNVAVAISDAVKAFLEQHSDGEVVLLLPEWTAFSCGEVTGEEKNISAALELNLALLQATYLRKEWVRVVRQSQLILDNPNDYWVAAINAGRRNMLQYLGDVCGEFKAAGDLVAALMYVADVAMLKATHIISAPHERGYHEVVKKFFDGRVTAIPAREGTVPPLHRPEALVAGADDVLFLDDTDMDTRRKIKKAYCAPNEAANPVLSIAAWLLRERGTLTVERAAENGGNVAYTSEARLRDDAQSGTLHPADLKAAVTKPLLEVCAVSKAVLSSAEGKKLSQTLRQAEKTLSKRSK
assayExplanation: Trypanosoma cruzi tyrosyl tRNA synthetase (TcYRS) _High Tyrosine SOP; also: in the data most compounds retested in dose-response had high values
Type: functional
Design: scale not given: direction of the effect not stated beside the values
condition: 30 µM
propertyMeasured: Percent Effect
Please format your answer as a value with the unit trailing.

# compound, subjectOfTest, Percent Effect
measured = [
    ("CC(c1ccc(Cl)cc1)N1CCN(CCNS(C)(=O)=O)CC1 (stereo unspecified)", "Tyrosyl-tRNA synthetase, putative (Trypanosoma cruzi (strain CL Brener))", "4.76%"),
    ("CC(C)c1nnc2n1CC(CNCc1ccncc1)CC2 (stereo unspecified)", "Tyrosyl-tRNA synthetase, putative (Trypanosoma cruzi (strain CL Brener))", "3.16%"),
    ("OCCOCCN1CCCC1c1nc2cc(F)ccc2[nH]1 (stereo unspecified)", "Tyrosyl-tRNA synthetase, putative (Trypanosoma cruzi (strain CL Brener))", "11.5%"),
    ("CCc1cnc2c(c1Nc1ccncc1)c(=O)n(C)c(=O)n2C", "Tyrosyl-tRNA synthetase, putative (Trypanosoma cruzi (strain CL Brener))", "7.41%"),
    ("CCN(C(c1cccnc1)c1ccc2c(c1)CCO2)S(C)(=O)=O (stereo unspecified)", "Tyrosyl-tRNA synthetase, putative (Trypanosoma cruzi (strain CL Brener))", "1.04%"),
]

Pending compound:
Request: If you can, please state the reported Percent Effect value of O=C(C1CCOCC1)N1CCc2ncnc(-c3ccc(F)cc3)c2CC1 .
Result: 0%

====

Recorded Percent Effect by entry
subjectOfTest: Tyrosyl-tRNA synthetase, putative (Trypanosoma cruzi (strain CL Brener))
assayExplanation: Trypanosoma cruzi tyrosyl tRNA synthetase (TcYRS) SOP
Type: functional
Design: scale not given: direction of the effect not stated beside the values
condition: 30 µM
Give just the number in %; leave the unit off.

Before answering, review these 5 worked examples.
# compound, subjectOfTest, unitSymbol, Percent Effect
measured = [
    ("CC(C)C(=O)N1CCN(C(=O)CCc2nnc(-c3ccccc3)o2)CC1", "Tyrosyl-tRNA synthetase, putative (Trypanosoma cruzi (strain CL Brener))", "%", 8.86),
    ("Cc1nn(C)c2cnn(C(C)C(=O)NCc3cccnc3)c12 (stereo not drawn)", "Tyrosyl-tRNA synthetase, putative (Trypanosoma cruzi (strain CL Brener))", "%", 17.9),
    ("Cc1ccc(C)c(OCCN2CCC(N3CCNC3=O)CC2)c1", "Tyrosyl-tRNA synthetase, putative (Trypanosoma cruzi (strain CL Brener))", "%", 13.4),
    ("Cc1noc2ncc(C(=O)NCC3CCOC3)cc12 (stereo not drawn)", "Tyrosyl-tRNA synthetase, putative (Trypanosoma cruzi (strain CL Brener))", "%", 0),
    ("CC(=O)N(Cc1noc(C)n1)C1CCN(Cc2ccccc2C#N)C1 (stereo not drawn)", "Tyrosyl-tRNA synthetase, putative (Trypanosoma cruzi (strain CL Brener))", "%", 5.06),
]

Pending compound:
Request: If you can, please state the reported Percent Effect value of CC(C)NC(=O)N1CCN(CC2CC2)CC2(CC(=O)N(C)C2)C1 (stereo not drawn) .
Result: -6.1

====

subjectOfTest: Tyrosyl-tRNA synthetase, putative (Trypanosoma cruzi (strain CL Brener))
assayExplanation: Trypanosoma cruzi tyrosyl tRNA synthetase (TcYRS) _High Tyrosine SOP; also: in the data most compounds retested in dose-response had high values
Type: functional
Set-up: scale not given: direction of the effect not stated beside the values
condition: 30 µM
propertyMeasured: Percent Effect
Please format your answer as a value with the unit trailing.

Before answering, review these 5 worked examples.
# compound, Percent Effect
measured = [
    ("O=C(NCc1nnc2n1CCCCC2)N1CCc2sccc2C1", "0%"),
    ("Cc1nc(C)n(CC2CCCN(c3ncnc4[nH]ccc34)C2)n1 (stereo unspecified)", "6.25%"),
    ("Cc1cc(-c2cnc(NCc3cccnc3)nc2C(C)(C)C)on1", "6.38%"),
    ("CC(C)CN(C)c1ccc(C(=O)N2CCCC2c2cnn(C)c2)cn1 (stereo unspecified)", "7.39%"),
    ("O=C(Nc1nc2c(s1)CCC2)c1cccnc1N1CCOCC1", "0%"),
]

Request: If you can, please state the reported Percent Effect value of CC(C)c1nc(C2CCCN2CC(=O)N2CCNC2=O)no1 (stereo unspecified) .
Result: -0.49%

====

Recorded Percent Effect by entry
subjectOfTest: Sialic acid-binding Ig-like lectin 9 (Homo sapiens)
assayExplanation: Hs-Siglec9 ALPHAscreen SOP 20170721
Design: scale not given: direction of the effect not stated beside the values
condition: 10 µM
Give just the number in %; leave the unit off.

Before answering, review these 8 worked examples.
# compound, Percent Effect / %
records = [
    ("O=C1N(c2ccc(Br)cc2)Cc2nc(=O)[nH]n21", 0.772),
    ("CC[C@@H](CO)NC(=O)c1coc(COc2ccc(OC)cc2)n1", -1.14),
    ("Cc1noc(C(C)N2CCN(CCC(=O)N3CCCCC3)CC2)n1 (centres undefined)", 3.61),
    ("O=C1[C@H]2CC[C@H](CN(Cc3ccccc3OC(F)F)C2)N1CC1CC1", 13.9),
    ("Cc1cc(C)n(CC2CCCN2C(=O)c2c[nH]c3ncccc23)n1 (centres undefined)", 5.96),
    ("Cc1nc(CN2C[C@@H]3CN(C(=O)c4cnccn4)C[C@@H]3C2)cs1", 5.75),
    ("O=C1COC2(CCN(Cc3ccoc3)CC2)CN1c1ccsc1", -2.69),
    ("NC(=O)CN1CCCN(C(=O)c2ccn(-c3ccccc3)n2)CC1", 12.3),
]

Pending compound:
Request: If you can, please state the reported Percent Effect value of c1cnc(NCc2noc3c2CN(CCN2CCCC2)CC3)nc1 .
Result: 10.5
